assay method text: Color tone of the dye
Assay type: physicochemical
condition parameters: Tables 1-9
assay endpoint: Color tone

>  <compound>
COc1ccccc1Nc1c(F)c2c(c(F)c1Nc1ccccc1OC)C(=O)c1c(O)ccc(O)c1C2=O [(131)]

>  <assay endpoint>
Color tone

>  <reported result>
Cyan

$$$$

----------
assay method text: Visible absorption spectrum (λmax, ε)
Type: physicochemical
condition parameters: in chloroform
Consider the following molecules and their measured λ max readings.
Numbers only here, please. The scale is nm.

Below are worked cases with known answers.
>  <chemical structure>
CC(C)c1cccc(C(C)C)c1Nc1c(F)c(F)c2c(c1F)C(=O)c1c(O)ccc(O)c1C2=O

>  <unit info>
nm

>  <λ max>
530

$$$$
>  <chemical structure>
N#Cc1c(F)c(F)c(Sc2c(F)c3c(c(F)c2Sc2c(F)c(F)c(C#N)c(F)c2F)C(=O)c2c(O)ccc(O)c2C3=O)c(F)c1F

>  <unit info>
nm

>  <λ max>
521

$$$$
>  <chemical structure>
Nc1c(Sc2ccccc2)c(Sc2ccccc2)c(F)c2c1C(=O)c1c(O)ccc(O)c1C2=O

>  <unit info>
nm

>  <λ max>
542

$$$$
>  <chemical structure>
O=C1c2c(O)ccc(O)c2C(=O)c2c(F)c(Nc3c(Cl)cccc3Cl)c(F)c(F)c21

>  <unit info>
nm

>  <λ max>
521

$$$$
>  <chemical structure>
CCCCNc1c(F)c2c(c(F)c1Nc1cccc(C(=O)OCC)c1)C(=O)c1c(O)ccc(O)c1C2=O

>  <unit info>
nm

>  <λ max>
661

$$$$

Notebook: CCCCOC(=O)c1ccc(Nc2c(F)c(F)c3c(c2F)C(=O)c2c(O)ccc(O)c2C3=O)cc1 , λ max read as 528

The molecule identified as CCCCCCCCOc1c(F)c2c(c(F)c1Nc1ccc([N+](=O)[O-])cc1)C(=O)c1c(O)ccc(O)c1C2=O registered its λ max at 524

Sure, the documented λ max for O=C1c2c(O)ccc(O)c2C(=O)c2c(F)c(Nc3ccc([N+](=O)[O-])cc3)c(F)c(F)c21 is 521

The molecule listed as O=C1c2c(O)ccc(O)c2C(=O)c2c(F)c(SC3CCCCC3)c(SC3CCCCC3)c(F)c21 shows λ max equal to 508

response.value for O=C1c2c(O)ccc(O)c2C(=O)c2c(Nc3ccccc3)c(Sc3ccccc3)c(Sc3ccccc3)c(Nc3ccccc3)c21 (field: λ max) = 692

# molecule CCOC(=O)c1cccc(Nc2c(F)c3c(c(F)c2Nc2cccc(C(=O)OCC)c2)C(=O)c2c(O)ccc(O)c2C3=O)c1 ; its λ max = 644

λ max measured on CCCCCCCCOc1c(F)c2c(c(F)c1Nc1cccc(C(=O)OCC)c1)C(=O)c1c(O)ccc(O)c1C2=O = 531

Field λ max (entry CCOC(=O)c1cccc(Nc2c(F)c3c(c(F)c2Sc2ccccc2)C(=O)c2c(O)ccc(O)c2C3=O)c1 ) reads 540
